test system: ABL1 (human), P00519 [F317L]; test: KINOMEscan competition binding; conditions: compound 10.0 µM
Sequence (P00519 whole entry F317L, looked up): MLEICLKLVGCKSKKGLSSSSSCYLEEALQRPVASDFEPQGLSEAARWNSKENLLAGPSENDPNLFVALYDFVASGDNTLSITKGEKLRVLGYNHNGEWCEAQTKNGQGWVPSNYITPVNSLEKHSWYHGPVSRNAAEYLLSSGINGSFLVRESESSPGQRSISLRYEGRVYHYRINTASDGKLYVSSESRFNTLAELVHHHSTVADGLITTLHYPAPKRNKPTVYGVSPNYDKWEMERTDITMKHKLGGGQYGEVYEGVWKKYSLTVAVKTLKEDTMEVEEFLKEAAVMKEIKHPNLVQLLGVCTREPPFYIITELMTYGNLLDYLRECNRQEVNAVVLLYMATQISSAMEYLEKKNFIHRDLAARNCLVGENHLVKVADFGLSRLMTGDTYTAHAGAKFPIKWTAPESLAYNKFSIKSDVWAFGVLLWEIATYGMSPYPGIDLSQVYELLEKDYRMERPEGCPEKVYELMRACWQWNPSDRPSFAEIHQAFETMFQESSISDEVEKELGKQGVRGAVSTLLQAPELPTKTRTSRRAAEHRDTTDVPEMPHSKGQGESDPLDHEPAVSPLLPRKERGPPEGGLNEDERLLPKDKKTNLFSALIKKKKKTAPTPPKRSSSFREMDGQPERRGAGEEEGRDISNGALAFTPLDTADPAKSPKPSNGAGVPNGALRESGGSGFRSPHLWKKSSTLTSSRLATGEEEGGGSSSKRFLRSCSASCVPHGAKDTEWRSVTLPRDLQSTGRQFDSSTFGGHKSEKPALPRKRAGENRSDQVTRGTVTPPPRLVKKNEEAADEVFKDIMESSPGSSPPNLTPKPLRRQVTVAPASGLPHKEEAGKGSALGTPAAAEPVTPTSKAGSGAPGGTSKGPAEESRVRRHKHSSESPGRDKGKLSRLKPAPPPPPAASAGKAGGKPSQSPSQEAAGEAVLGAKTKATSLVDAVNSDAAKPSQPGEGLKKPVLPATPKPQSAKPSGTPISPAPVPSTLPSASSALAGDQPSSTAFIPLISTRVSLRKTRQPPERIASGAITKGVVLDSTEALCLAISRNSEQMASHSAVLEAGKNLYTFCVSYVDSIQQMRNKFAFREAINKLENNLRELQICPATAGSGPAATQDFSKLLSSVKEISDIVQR
Catalogue of kinase still bound, per cent of control values

- MOLECULAR STRING: "CS(=O)(=O)N1CCN(Cc2cc3nc(-c4cccc5[nH]ncc45)nc(N4CCOCC4)c3s2)CC1"
  kinase still bound, per cent of control, %: 100
- MOLECULAR STRING: "COc1cc2ncn(-c3cc(OCc4ccccc4C(F)(F)F)c(C(N)=O)s3)c2cc1OC"
  kinase still bound, per cent of control, %: 70
- MOLECULAR STRING: "COc1cc(N2CCN(C)CC2)ccc1Nc1ncc2c(n1)N(C)c1ccccc1C(=O)N2C"
  kinase still bound, per cent of control, %: 17
- MOLECULAR STRING: "CC[C@@H]1C(=O)N(C)c2cnc(Nc3ccc(C(=O)NC4CCN(C)CC4)cc3OC)nc2N1C1CCCC1"
  kinase still bound, per cent of control, %: 100
- MOLECULAR STRING: "Cc1cn(-c2cc(C(=O)Nc3ccc(C)c(NC(=O)c4ccno4)c3)cc(C(F)(F)F)c2)cn1"
  kinase still bound, per cent of control, %: 1.4
- MOLECULAR STRING: "COc1cc(C(=O)NC2CCN(C)CC2)ccc1Nc1ncc2c(n1)N(C1CCCC1)CCC(=O)N2C(C)C"
  kinase still bound, per cent of control, %: 100
- MOLECULAR STRING: "N#CCNC(=O)c1ccc(-c2ccnc(Nc3ccc(N4CCOCC4)cc3)n2)cc1"
  kinase still bound, per cent of control, %: 100
- MOLECULAR STRING: "CNC(=O)c1ccc(Nc2cc(Nc3ccccc3S(=O)(=O)C(C)C)c3cc[nH]c3n2)nc1"
  kinase still bound, per cent of control, %: 28
- MOLECULAR STRING: "C=CC(=O)Nc1ccc(CN(C(=O)Nc2c(Cl)c(OC)cc(OC)c2Cl)c2cc(Nc3ccc(N4CCN(C)CC4)cc3)ncn2)cc1"
  kinase still bound, per cent of control, %: 100

* * *

Each record here notes measured kinase still bound, per cent of control.
biological target: PIK3C2G (human); assay: KINOMEscan competition binding; details: compound 10.0 µM
MEASURED ATTRIBUTE: kinase still bound, per cent of control (%)

- MOLECULAR STRING: "CCc1nc(-c2cccc(C)c2)c(-c2ccnc(NC(=O)c3ccccc3)c2)s1"
  MEASURED NUMBER: 40
- MOLECULAR STRING: "COc1cc2ncnc(Nc3cccc(Cl)c3)c2cc1OC"
  MEASURED NUMBER: 43
- MOLECULAR STRING: "N#C/C(=C1/Nc2ccccc2S1)c1ccnc(NCCc2cccnc2)n1"
  MEASURED NUMBER: 8.8
- MOLECULAR STRING: "COc1cc2c(Nc3ccc(NC(=O)c4ccccc4)cc3)ncnc2cc1OCCCN1CCOCC1"
  MEASURED NUMBER: 14
- MOLECULAR STRING: "N#Cc1cc(-c2ccnc(Nc3ccc(-n4cnc(-c5cccnc5)n4)cc3)n2)cc(N2CCOCC2)c1"
  MEASURED NUMBER: 100

* * *

Listing: kinase still bound, per cent of control of selected compounds
molecular target: CSNK1G2 (human) (UniProt P78368); experiment: KINOMEscan competition binding; details: compound 10.0 µM
Sequence (P78368 whole entry, looked up): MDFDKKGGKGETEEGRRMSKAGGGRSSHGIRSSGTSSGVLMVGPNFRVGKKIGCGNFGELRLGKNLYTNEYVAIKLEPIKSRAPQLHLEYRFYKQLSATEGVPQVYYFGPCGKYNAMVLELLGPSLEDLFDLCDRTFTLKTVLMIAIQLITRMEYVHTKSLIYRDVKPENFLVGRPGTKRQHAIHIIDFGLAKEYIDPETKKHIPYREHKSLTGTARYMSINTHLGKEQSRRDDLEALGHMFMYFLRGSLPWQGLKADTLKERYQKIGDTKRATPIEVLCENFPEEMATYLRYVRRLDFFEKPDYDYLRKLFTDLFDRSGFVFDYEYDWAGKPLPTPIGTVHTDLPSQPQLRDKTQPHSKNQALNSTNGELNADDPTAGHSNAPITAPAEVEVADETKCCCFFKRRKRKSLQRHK

- COMPOUND: "COc1cc(C)c(Sc2cnc(NC(=O)c3ccc(CNC(C)C(C)C)cc3)s2)cc1C(=O)N1CCN(C(C)=O)CC1 (configuration not stated)"
  RESULT UNITS: "%"
  kinase still bound, per cent of control: 100
- COMPOUND: "O=c1[nH]c2ccccc2n1C1CCN(Cc2ccc(-c3nc4cc5[nH]cnc5cc4nc3-c3ccccc3)cc2)CC1"
  RESULT UNITS: "%"
  kinase still bound, per cent of control: 59
- COMPOUND: "CCOc1cc(N2CCC(O)CC2)ccc1Nc1ncc2c(n1)N(C)c1ccccc1C(=O)N2C"
  RESULT UNITS: "%"
  kinase still bound, per cent of control: 100
- COMPOUND: "COc1ccc(N(C(=O)Oc2cc(C(=O)Nc3cccc(C(F)(F)F)c3)ccc2C)c2ccnc(Nc3ccc(N4CCN(C)CC4)cc3)n2)c(OC)c1"
  RESULT UNITS: "%"
  kinase still bound, per cent of control: 100
- COMPOUND: "N#C/C(=C1/Nc2ccccc2S1)c1ccnc(NCCc2cccnc2)n1"
  RESULT UNITS: "%"
  kinase still bound, per cent of control: 77
- COMPOUND: "COc1cc2c(Nc3ccc(NC(=O)c4ccccc4)cc3)ncnc2cc1OCCCN1CCOCC1"
  RESULT UNITS: "%"
  kinase still bound, per cent of control: 100
- COMPOUND: "CC(=O)c1c(C)c2cnc(Nc3ccc(N4CCNCC4)cn3)nc2n(C2CCCC2)c1=O"
  RESULT UNITS: "%"
  kinase still bound, per cent of control: 92
- COMPOUND: "CCN1CCN(Cc2ccc(NC(=O)c3ccc(C)c(/C=C/c4cnc5[nH]ccc5c4OC)c3)cc2C(F)(F)F)CC1"
  RESULT UNITS: "%"
  kinase still bound, per cent of control: 39
- COMPOUND: "COc1cc2ncnc(Nc3cccc(Cl)c3)c2cc1OC"
  RESULT UNITS: "%"
  kinase still bound, per cent of control: 83
- COMPOUND: "COc1cc(N2CCC(C(N)=O)CC2)ccc1Nc1nc(N)c(Cl)c(Nc2ccccc2S(=O)(=O)C(C)C)n1"
  RESULT UNITS: "%"
  kinase still bound, per cent of control: 100
- COMPOUND: "CC1=C(C(=O)Nc2cc3cn[nH]c3cc2F)C(c2ccc(C(F)(F)F)cc2)CC(=O)N1 (configuration not stated)"
  RESULT UNITS: "%"
  kinase still bound, per cent of control: 100
- COMPOUND: "Cc1cn(-c2cc(C(=O)Nc3ccc(C)c(NC(=O)c4ccno4)c3)cc(C(F)(F)F)c2)cn1"
  RESULT UNITS: "%"
  kinase still bound, per cent of control: 100
- COMPOUND: "CCN(CCO)CCCOc1ccc2c(Nc3cc(CC(=O)Nc4cccc(F)c4)[nH]n3)ncnc2c1"
  RESULT UNITS: "%"
  kinase still bound, per cent of control: 76
- COMPOUND: "CCc1nc(-c2cccc(C)c2)c(-c2ccnc(NC(=O)c3ccccc3)c2)s1"
  RESULT UNITS: "%"
  kinase still bound, per cent of control: 19
- COMPOUND: "CNC(=O)Nc1ccc(-c2nc(N3CC4CCC(C3)O4)c3cnn(C4CCC5(CC4)OCCO5)c3n2)cc1"
  RESULT UNITS: "%"
  kinase still bound, per cent of control: 95
- COMPOUND: "C=CC(=O)Nc1ccc(C(=O)c2sc(Nc3ccc(N4CCN(C)CC4)cc3OC)nc2N)cc1"
  RESULT UNITS: "%"
  kinase still bound, per cent of control: 25
- COMPOUND: "N#Cc1cc(-c2ccnc(Nc3ccc(-n4cnc(-c5cccnc5)n4)cc3)n2)cc(N2CCOCC2)c1"
  RESULT UNITS: "%"
  kinase still bound, per cent of control: 72
